# measured_on: T1, hRGMa-His (human, UniProt Q96B86 48-422, limits assumed)
# T1 construct: not shown: His tag
# T1 sequence: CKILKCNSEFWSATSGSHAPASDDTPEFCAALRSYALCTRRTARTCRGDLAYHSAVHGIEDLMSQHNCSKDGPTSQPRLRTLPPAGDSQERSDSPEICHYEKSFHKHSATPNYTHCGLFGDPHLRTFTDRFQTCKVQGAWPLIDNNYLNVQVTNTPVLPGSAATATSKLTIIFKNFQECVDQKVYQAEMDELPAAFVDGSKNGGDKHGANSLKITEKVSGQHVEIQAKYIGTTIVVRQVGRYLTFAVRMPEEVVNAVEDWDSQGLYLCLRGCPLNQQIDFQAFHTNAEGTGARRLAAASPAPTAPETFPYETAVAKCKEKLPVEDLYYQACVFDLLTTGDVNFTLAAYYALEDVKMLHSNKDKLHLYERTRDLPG
# measurement_notes: BIAcore; Ab captured on CM5 chip via anti-hIgG Fc Ab, antigen injected; 1:1 Langmuir fit
property: kon (M⁻¹ s⁻¹)
Write down the numeric answer in M⁻¹ s⁻¹ and omit the unit.

Check out these entries, answers already filled in.
>  <binder>
h5F9.AM4 (antibody, V domains shown, also called RGMA-h5F9AM.4; RGMA-h5F9Vh7a/pJP29 1 hIgG1/K mut) VH: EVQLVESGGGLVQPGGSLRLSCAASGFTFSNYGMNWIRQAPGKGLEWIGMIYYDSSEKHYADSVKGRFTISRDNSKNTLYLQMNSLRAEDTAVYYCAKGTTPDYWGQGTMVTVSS VL: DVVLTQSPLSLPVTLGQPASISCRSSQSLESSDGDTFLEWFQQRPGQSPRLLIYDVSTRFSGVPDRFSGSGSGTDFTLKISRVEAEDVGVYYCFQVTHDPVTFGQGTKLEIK

>  <kon (M⁻¹ s⁻¹)>
1.4e+06

$$$$
>  <binder>
h5F9.AM9 (antibody, V domains shown, also called RGMA-h5F9AM.9; RGMA-h5F9pJP297/pJP 299 hIgG1/K mut) VH: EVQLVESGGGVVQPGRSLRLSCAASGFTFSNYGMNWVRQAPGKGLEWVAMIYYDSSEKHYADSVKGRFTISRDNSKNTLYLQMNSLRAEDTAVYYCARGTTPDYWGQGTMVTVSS VL: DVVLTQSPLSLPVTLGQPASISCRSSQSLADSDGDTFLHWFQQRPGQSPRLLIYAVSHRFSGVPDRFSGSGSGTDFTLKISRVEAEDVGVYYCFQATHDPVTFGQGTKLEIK

>  <kon (M⁻¹ s⁻¹)>
860000

$$$$
>  <binder>
h5F9.AM11 (antibody, V domains shown, also called RGMA-h5F9AM; 11; RGMA-h5F9pJP302/pJP 303 hIgG1/K mut) VH: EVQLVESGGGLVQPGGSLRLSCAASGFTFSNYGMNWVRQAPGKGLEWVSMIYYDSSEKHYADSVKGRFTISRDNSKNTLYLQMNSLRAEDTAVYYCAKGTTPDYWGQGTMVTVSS VL: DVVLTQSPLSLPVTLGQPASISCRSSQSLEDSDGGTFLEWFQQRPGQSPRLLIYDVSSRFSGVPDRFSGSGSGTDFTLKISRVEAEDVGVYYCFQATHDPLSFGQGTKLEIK

>  <kon (M⁻¹ s⁻¹)>
930000

$$$$

Let us examine a further case.
### Prompt Specify kon for h5F9.AM8 (antibody, V domains shown, also called RGMA-h5F9AM.8; RGMA-h5F9pJP297/pJP 298 hIgG1/K mut) VH: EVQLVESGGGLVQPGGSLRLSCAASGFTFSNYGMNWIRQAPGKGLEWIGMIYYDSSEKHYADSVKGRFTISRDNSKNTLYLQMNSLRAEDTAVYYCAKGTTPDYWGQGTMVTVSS VL: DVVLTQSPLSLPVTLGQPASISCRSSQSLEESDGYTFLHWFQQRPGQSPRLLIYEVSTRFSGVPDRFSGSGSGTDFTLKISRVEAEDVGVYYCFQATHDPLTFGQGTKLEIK and stop.
### Response 870000
